src = ChEMBL document CHEMBL1201862

Kindly supply the reported GI50 values for the records listed here.
# Test system: HCT-116
# Test Details: NCI tumour cell line growth inhibition, 48 h
Active and inactive are the calls of the source. Rule as the data show it: active = GI50 up to about 1.1 µM and inactive = higher.

Solved cases (5 shown):
CCN(CC)c1ccc2cc(C(N)=O)c(=N)oc2c1: 35.1 µM (inactive)
O=C1C/C(=C/c2ccc(/C=C3/CC(=O)N(c4cccc(Br)c4)C3=O)cc2)C(=O)N1c1cccc(Br)c1: > 100 µM (inactive)
O=C1C(=Cc2ccc(O)cc2)N=C(c2ccccc2)N1n1c(-c2ccccc2)nc2ccccc2c1=O: > 100 µM (inactive)
N#C[BH2-][n+]1cn(C2CC(OP(=O)(O)OCC3OC(n4cnc5c(N)ncnc54)CC3O)C(CO)O2)c2nc(N)[nH]c(=O)c21 (centres undefined): > 100 µM (inactive)
CC(C)CCC[C@@H](C)C1CCC2[C@@H]3CCC4C[C@@H](NS(C)(=O)=O)CC[C@]4(C)C3CC[C@@]21C (some centres undefined): > 100 µM (inactive)

Please state GI50 for every compound in the list that follows.
1. Nc1sccc1S(=O)(=O)c1ccsc1N
2. CCCC(Sc1ccccc1)P(=O)(c1ccccc1)c1ccccc1 (centres undefined)
3. N#CC(C#N)/N=C/c1ccncc1
4. O=c1c(C(c2ccc3ccccc3c2)c2c(O)oc3ccccc3c2=O)c(O)oc2ccccc12

> 100 µM (inactive)
31.3 µM (inactive)
> 100 µM (inactive)
35 µM (inactive)

###

Kindly supply the reported GI50 values for the records listed here.
# Tested on: NCI-H522
# Test Details: NCI tumour cell line growth inhibition, 48 h
Activity calls are given as the source filed them. Rule as the data show it: active = GI50 up to about 1.1 µM and inactive = higher.

Solved cases (3 shown):
C/C(N)=N/OCc1nc(C)no1: > 100 µM (inactive)
CCOc1ccc(-n2nnc3c(N)nc(N)nc32)cc1: > 100 µM (inactive)
CC12CCC(C(=O)OC1=O)C(C)(C)O2 (stereo unspecified): > 100 µM (inactive)

Please state GI50 for every compound in the list that follows.
1. CC(C)CS(=O)(=O)/C(=C(\c1ccc(Br)cc1)S(=O)(=O)CC(C)C)c1ccc(Br)cc1
2. CCN(CC)CC(O)C1CCC(c2ccccc2)CC1 (stereo unspecified)
3. Cc1[nH]c(=O)[nH]c(=S)c1C(=O)NC(C)(CO)CO

1. > 100 µM (inactive)
2. 16.2 µM (inactive)
3. > 100 µM (inactive)

###

# System: HCT-116
# Test Details: NCI tumour cell line growth inhibition, 48 h
The source made the active and inactive calls. Rule as the data show it: active = GI50 up to about 1.1 µM and inactive = higher.
Measurement Kind: GI50

Solved cases (5 shown):
CC1=Nc2nc(Cl)cn2C(=O)C1(Cl)Cl: > 10 µM (inactive)
CC1[C@@]2(O[C@@H]3C=C4C5CCC6Cc7nc8c(nc7C[C@@]6(C)C5C[C@H](O)[C@@]4(C)[C@]13O)CC1CCc3c(cc4c5c3C(O)C[C@H]5[C@@H](C)C3(O4)OC(C)(C)CC3O)[C@]1(C)C8)O[C@@](C)(CO)C[C@@H]2O (stereo partly drawn): 0.558 µM (active)
CC(=O)OC[C@@H](OC(C)=O)[C@H](OC(C)=O)[C@@H]1OC(C)(C)O[C@@H]1C1SCCCS1: > 100 µM (inactive)
CC(=O)NCc1c(C(N)=O)ncn1Cc1ccccc1: > 100 µM (inactive)
Cc1nc2ccc(S(=O)(=O)Nc3ccc(Cl)cc3)cc2c(=O)n1NC(=O)CNc1ccc(Cl)cc1: > 100 µM (inactive)

Please state GI50 for every molecule in the list that follows.
1. O=C(OCc1nc2ccc(Br)cc2c(=O)n1-c1ccccc1)c1ccccc1O
2. O=S(=O)(O)c1ccc2c(/N=N\c3ccc(F)cc3)c(O)c(S(=O)(=O)O)cc2c1

1: > 100 µM (inactive); 2: > 100 µM (inactive)

What value of GI50 has been recorded for this entry: COc1cc(C(=O)O)c(-c2cc3c(cc2C=O)OCO3)c(OC)c1OC
> 10 µM (inactive)

###

# System: NCI-H226
# Test Details: NCI tumour cell line growth inhibition, 48 h
Active and inactive are the calls of the source. No stated cut-off is given here; in the data, active = GI50 up to about 1.1 µM and inactive = higher.
Measurement Kind: GI50

Solved cases (6 shown):
CC(=O)O[C@H]1[C@@H](N2CCCCC2)C[C@H]2[C@@H]3CC=C4C[C@@H](N5CCCC5)CC[C@]4(C)[C@H]3CC[C@@]21C: > 100 µM (inactive)
CC(=O)Nc1ccc(S(=O)(=O)Nc2cnc3ccccc3n2)cc1: > 100 µM (inactive)
N#CC(/C(CCCC(=O)Nc1cccc([N+](=O)[O-])c1)=N/NC(=O)c1cc2ccccc2cc1O)c1ccccc1 (stereo unspecified): > 100 µM (inactive)
O=C1C(=Cc2ccc(O)cc2)N=C(c2ccccc2)N1n1c(-c2ccccc2)nc2ccccc2c1=O: > 100 µM (inactive)
Cc1cc(C)[n+]2c(c1)C=CC2.[O-][Cl+3]([O-])([O-])[O-]: 15.6 µM (inactive)
C=CC(OC(=O)C(C)C)c1ccc(OC(=O)C(C)C)cc1 (stereo unspecified): 20.6 µM (inactive)

Please state GI50 for every molecule in the list that follows.
1. CN(C)c1ccc(/C=C2\N=C(NN)NC2=O)cc1
2. CC(=O)Nc1ccc(-c2nc3ccccc3s2)cc1O
3. CC(C)(C)OC(=O)N1C/C=C\C(=O)C2(OCCO2)c2ccccc21

["78.2 µM (inactive)", "16.9 µM (inactive)", "19.1 µM (inactive)"]

Please state GI50 for every molecule in the list that follows.
1. Cc1cc2c(cc1-c1cc3c(cc1C)C(C(C)C)=C(O)C(=O)/C3=C\NCC1CCCN3CCCCC13)/C(=C/NCC1CCCN3CCCCC13)C(=O)C(O)=C2C(C)C (stereo unspecified)
2. CC(=O)C1=CN=C2C(=O)N(c3ccccc3)N(C)C12C (stereo unspecified)
3. COC(=O)C1=CCS(=O)(=O)C1
4. COc1cc(OC)cc(-c2nc3cc(F)ccc3s2)c1
5. CN(C)CCCC12CCCCC1=Nc1ccccc12 (stereo unspecified)
6. [O-][S+]1Cc2ccccc2CSS1 (stereo unspecified)
7. CC(C)(C)OC(=O)N(O)CCCn1cnc2c(N)ncnc21
8. CCOC(=O)/C(I)=C/c1cc(OC)c(OC)c(OC)c1

11 µM (inactive)
> 100 µM (inactive)
> 100 µM (inactive)
13.7 µM (inactive)
> 100 µM (inactive)
27.2 µM (inactive)
> 100 µM (inactive)
4.69 µM (inactive)

Please state GI50 for every molecule in the list that follows.
1. CC1(C)CC2=C(SC3C=CC=CC3N2)C(=O)C1C(=O)C(N)=O (stereo unspecified)
2. CC(=O)Oc1ccc(O)c2c1CCCC2
3. COC(=O)C1=C(C)N2CCSC2(C)C(C(=O)OC)C1c1cccc(Cl)c1 (stereo unspecified)
4. COc1cc(S(=O)(=O)Nc2ccc(-c3csc(/N=C\c4cccc(Oc5ccccc5)c4)n3)cc2)ccc1Cl
5. COc1ccc(C(=O)c2sc(Nc3ccc(Cl)cc3)nc2N)cc1
6. CO[C@H]1CC[C@]2(C)C3=CC[C@@]4(C)C(CC[C@@H]4C(C)CC[C@@H](C)C(C)C)C(=CCC2C1)O3 (stereo partly specified)
7. C/C(=N\Nc1nc2ccccc2o1)c1ccncn1

["91 µM (inactive)", "> 100 µM (inactive)", "19.2 µM (inactive)", "47.5 µM (inactive)", "29.6 µM (inactive)", "> 16.5 µM (inactive)", "0.228 µM (active)"]

Please state GI50 for every molecule in the list that follows.
1. Cc1ccccc1[P+](C)(c1ccccc1C)c1ccccc1C
2. COc1cnc2cc(C(=O)O)c3c([N+](=O)[O-])cccc3c2c1
3. COc1ccc(C(c2c(O)c3ccccc3n(-c3ccccc3)c2=O)c2c(O)c3ccccc3n(-c3ccccc3)c2=O)cc1
4. Cc1cc2c(CC(=O)O)n[nH]c2c(C(=O)O)c1C
5. COc1cccc(C2c3cc4c(cc3OC(N3CCOCC3)C2C)OCO4)c1O (stereo unspecified)
6. CCN(CC)CC(O)C1CCC(c2ccccc2)CC1 (stereo unspecified)
7. OC(C/C(=N\N=C(/CC(O)(C(F)(F)F)C(F)(F)F)c1ccccc1)c1ccccc1)(C(F)(F)F)C(F)(F)F
8. NCCCN(CCCCN(CCCN)CCCc1ccccc1)CCCc1ccccc1

14.6 µM (inactive)
> 100 µM (inactive)
> 100 µM (inactive)
> 100 µM (inactive)
4.46 µM (inactive)
15.8 µM (inactive)
> 10 µM (inactive)
17.6 µM (inactive)

###

# Test system: HT-29
# Test Details: NCI tumour cell line growth inhibition, 48 h
Activity calls are given as the source filed them. Cut-off read from the data, not from the text of the source: active = GI50 up to about 1.1 µM and inactive = higher.
Measurement Kind: GI50

Please state GI50 for every molecule in the list that follows.
1. CCN(CC)c1ccc2cc(C(N)=O)c(=N)oc2c1
2. CC(=O)c1ccc(-c2oc(-c3ccccc3)cc2-c2ccc3c(c2)OCO3)s1
3. S=C1NCN2CCN(CC2)CNC(=S)C(=S)NCN2CCN(CC2)CNC1=S
4. O=c1[nH]c(=S)[nH]cc1CN1CCOCC1
5. COc1ccc(C(=O)Cn2c(C(=O)/C=C/c3ccco3)nc3ccccc32)cc1

1. 51.5 µM (inactive)
2. > 100 µM (inactive)
3. 85.5 µM (inactive)
4. > 100 µM (inactive)
5. 36.6 µM (inactive)
